// data source = the supplement of paper PMC9170038

# System: MS2 coat protein
# testDetails: apparent KD of MS2 coat protein; designed switch direction (-1 OFF switch, 1 ON switch): -1; higher = weaker reporter binding
# details: Eterna round: R95; input ligand: none

| seqString | apparent KD of MS2 coat protein [µM] |
| --- | --- |
| GUGUAGUCAGGAUAUACAUAGGAAGAGAAGAUAAGAUAAGCACAUGAGGAUCACCCAUGUAGAAGGGACAGUGU [Excluse me!! 2 - Jieux - Exclusion 2] (puzzle: Exclusion 2) | 0.061 |
| AAUAGGACAGGAUAUCCGGAGUCGAACAUGAGGAUCACCCAUGUGAUGAGGAUGUUCGCUGGAGAAGGGUCGGGCU [Teonus] (puzzle: Exclusion 5) | 0.0537 |
| GACUGGACGUGGUCUGGUUACAUGAGGAUCACCCAUGUAGGUCUAAGAACAUGCCUUUUGUACGCUCGUCUUAUAUA [JR_SV3TOV1_Sub065] (puzzle: Sensor v3, turn-off variant 1) | 0.0396 |
| GUGGUCCGAGGAUAUAUUAUGUGAUACAUGAGGAUCACCCAUGUUAUAUGAUGGAUGUUAGUAGAAGGCGGACUAC [Mat - Exclusion 5 - JL mod - D82] (puzzle: Exclusion 5) | 0.0964 |
| AAUAAUUUUUUUUUUUUACAAGCUUUUUGCUCGUCUUAUACAUGAGGAUCACCCAUGUGGGUGAAAGAUAGAUUGUC [JMF's solution 1] (puzzle: Sensor v3, turn-off variant 2) | 0.0448 |
